- Tested on: ACHN renal
- procedure summary: NCI-60 one-dose screen, 48 h (100 = growth as untreated, 0 = no growth, -100 = all killed)
- assay setup: 10 µM unless noted
- Description: Growth inhibition of the ACHN human tumor cell line is measured as a screen for anti-cancer activity. Cells are grown in 96 well plates and exposed to the test compound for 48 hours. Compounds are tested at a single concentration, which is 10^-5 M for most compounds. The reported endpoint is percent growth (GI% or GIPRCNT), where numbers from 0 - 100% represent growth inhibition, and numbers from -100% - 0 represent cell death. For example, a value of 40 represents 60% growth inhibition. […]
About 83,000 compounds went through this panel and 20% of them were active in at least one assay; those are over-represented in the sample as a whole. Activity calls are given as the source filed them. Rule for the calls: active = growth percent below 10; inactive = the rest.
assay readout: growth

structure notation | system name | data value
CCCCCCCCOC(=O)c1ccc(O)c(OC)c1 | ACHN renal | 103% (inactive)
CC(C)(C)OC(=O)N1C/C(=C\c2ccoc2)C(=O)/C(=C/c2ccoc2)C1 | ACHN renal | 99.6% (inactive)
Cc1ccc(-c2c(Br)c(OC(=O)CO[C@@H]3C[C@H](C)CC[C@H]3C(C)C)c(-c3ccc(C)cc3C)c(Br)c2OC(=O)CO[C@H]2C[C@@H](C)CC[C@@H]2C(C)C)c(C)c1 | ACHN renal | 104% (inactive)
C=C1C(=O)O[C@H]2[C@H]1CC/C(COC(=O)/C=C/c1c[nH]c3ccccc13)=C\CC[C@@]1(C)O[C@@H]21 | ACHN renal | -100% (active)
C#CCn1cc(C=C2C(=O)NC(=S)NC2=O)c2cc(Cl)ccc21 | ACHN renal | -25.2% (active)
C1=C2CNCC3=Cc4ccc5ccccc5c4OC23Oc2c1ccc1ccccc21 | ACHN renal | 37.2% (inactive)
O=C(CSc1nc2sc3c(c2c(=O)n1Cc1ccccc1)CCCC3)N1CCN(c2ccccc2)CC1 | ACHN renal | 104% (inactive)
COc1cc2nc(-c3ccc(C(F)(F)F)cc3)cc(OCCCN3CCC(O)CC3)c2cc1OC | ACHN renal | 31.2% (inactive)
CCCCCCN(C)Cc1ccc(OCCOc2ccc(CN(C)CCCCCC)cc2)cc1 | ACHN renal | 35.1% (inactive)
